Molecular target: C-X-C chemokine receptor type 4 (Homo sapiens)
Assay: Displacement of [125I]-CXCL12 from CXCR4 expressed in human Jurkat cells at 10 uM relative to T140
Type: cell-based
Measured endpoint: inhibition (%)

[[record]]
compound = "C[C@@H](NC(=O)[C@H](CCCNC(=N)N)NC(=O)c1ccc(CN(Cc2cccnc2)C(=O)c2ccc(F)cc2)cc1)c1cccc2ccccc12"
measured_endpoint = "inhibition"
uom = "%"
numeric_value = 11


I: C[C@H](NC(=O)[C@H](CCCNC(=N)N)NC(=O)c1ccc(CN(CCc2cccnc2)C(=O)c2ccc(F)cc2)cc1)c1cccc2ccccc12
II: C[C@@H](NC(=O)[C@H](CCCNC(=N)N)NC(=O)c1ccc(CN(CCc2ccc(F)cc2)CCc2ccccn2)cc1)c1cccc2ccccc12
III: C[C@@H](NC(=O)[C@H](CCCNC(=N)N)NC(=O)c1ccc(CN(Cc2ccc(F)cc2)Cc2ccccn2)cc1)c1cccc2ccccc12
Exam item: Rank the 3 molecules: largest inhibition first, smallest last. Quick reminder: the answer is the labels in the order asked.
Marked response: I, II, III
(I: 32%, II: 13%, III: 0%)

###

Experiment: Cytotoxicity against human MT4 cells assessed as reduction of cell viability
Format: cell-based
Measured endpoint: CC50 (µM)
Respond with the bare value in µM.

[[record]]
compound = "Cc1cn([C@H]2C[C@H](N=[N+]=[N-])[C@@H](CO)O2)c(=O)[nH]c1=O"
numeric_value = 100

[[record]]
compound = "C[C@H](NC(=O)[C@H](CCCNC(=N)N)NC(=O)c1ccc(CNCc2ccccn2)cc1)c1cccc2ccccc12"
numeric_value = 80

[[record]]
compound = "C[C@@H](NC(=O)[C@H](CCCNC(=N)N)NC(=O)c1ccc(CN(CCc2ccc(F)cc2)CCc2ccccn2)cc1)c1cccc2ccccc12"
numeric_value = 27

[[record]]
compound = "C[C@@H](NC(=O)[C@H](CCCNC(=N)N)NC(=O)c1ccc(CNC(=O)c2ccc(C(F)(F)F)cc2)cc1)c1cccc2ccccc12"
numeric_value = 66

[[record]]
compound = "C[C@@H](NC(=O)[C@H](CCCNC(=N)N)NC(=O)c1ccc(CN(CCc2ccc(F)cc2)CCc2cccnc2)cc1)c1cccc2ccccc12"
numeric_value = 11


Shifting focus to the compound that follows.
Exam item: Bench note: what CC50 did C[C@H](NC(=O)[C@H](CCCNC(=N)N)NC(=O)c1ccc(CN(Cc2ccncc2)Cc2ccc(F)cc2)cc1)c1cccc2ccccc12 show?
Marked response: 44

###

Target: C-X-C chemokine receptor type 4 (Homo sapiens) (UniProt P61073)
Sequence (P61073 whole entry): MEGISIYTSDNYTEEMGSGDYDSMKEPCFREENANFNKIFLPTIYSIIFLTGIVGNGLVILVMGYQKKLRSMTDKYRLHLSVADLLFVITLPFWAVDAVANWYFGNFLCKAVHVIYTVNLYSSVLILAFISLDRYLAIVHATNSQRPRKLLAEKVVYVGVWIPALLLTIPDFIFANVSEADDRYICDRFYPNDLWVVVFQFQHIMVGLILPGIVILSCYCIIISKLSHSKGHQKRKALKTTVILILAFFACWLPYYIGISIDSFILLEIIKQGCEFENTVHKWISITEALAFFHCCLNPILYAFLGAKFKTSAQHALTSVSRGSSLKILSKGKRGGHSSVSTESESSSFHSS
Experiment: Displacement of [125I]-CXCL12 from CXCR4 expressed in human Jurkat cells at 10 uM relative to T140
Type: cell-based
Measured endpoint: inhibition (%)

Would you please look over these solved cases?
[[record]]
compound = "C[C@H](NC(=O)[C@H](CCCNC(=N)N)NC(=O)c1ccc(CN(CCc2cccnc2)Cc2ccc(F)cc2)cc1)c1cccc2ccccc12"
measured_target = "C-X-C chemokine receptor type 4 (Homo sapiens) (UniProt P61073)"
measured_endpoint = "inhibition"
numeric_value = 60

[[record]]
compound = "C[C@H](NC(=O)[C@H](CCCNC(=N)N)NC(=O)c1ccc(CN(Cc2ccncc2)Cc2ccc(F)cc2)cc1)c1cccc2ccccc12"
measured_target = "C-X-C chemokine receptor type 4 (Homo sapiens) (UniProt P61073)"
measured_endpoint = "inhibition"
numeric_value = 16

[[record]]
compound = "C[C@H](NC(=O)[C@H](CCCNC(=N)N)NC(=O)c1ccc(CN(Cc2ccncc2)C(=O)c2ccc(F)cc2)cc1)c1cccc2ccccc12"
measured_target = "C-X-C chemokine receptor type 4 (Homo sapiens) (UniProt P61073)"
measured_endpoint = "inhibition"
numeric_value = 13


P: C[C@@H](NC(=O)[C@H](CCCNC(=N)N)NC(=O)c1ccc(CN(CCc2ccncc2)CCc2ccc(F)cc2)cc1)c1cccc2ccccc12
Q: C[C@H](NC(=O)[C@H](CCCNC(=N)N)NC(=O)c1ccc(CN(CCc2ccncc2)CCc2ccc(F)cc2)cc1)c1cccc2ccccc12
R: C[C@@H](NC(=O)[C@H](CCCNC(=N)N)NC(=O)c1ccc(CN(CCc2ccc(F)cc2)Cc2ccccn2)cc1)c1cccc2ccccc12
S: C[C@@H](NC(=O)[C@H](CCCNC(=N)N)NC(=O)c1ccc(CN(CCc2cccnc2)C(=O)c2ccc(F)cc2)cc1)c1cccc2ccccc12
Exam item: Highest inhibition first, then in falling order down to the smallest. Use the labels to give the requested order.
Marked response: Q, S, R, P
